measuredProperty: melting point

1. O=C(COc1ccc2c(c1)COB2O)N1CCCCC1 | 158 to 163 °C
2. N#Cc1ccc(Oc2cccc3c2B(O)OC3)cc1 | 148 to 153 °C
3. Cc1cccc2c1B(O)OC2 [C65, 7-methylbenzo[c][1,2]oxaborol-1(3H)-ol] | 107 to 111 °C
4. CCCCC(=O)c1cccc(COc2ccc3c(c2)COB3O)c1 | 96 to 98 °C
5. COc1ccc(Oc2ccc3c(c2)B(O)OC3)cc1 | 126 to 129 °C
6. OB1OCc2ccc(N3CCOCC3)cc21 | 128 to 132 °C

* * *

# Tested on: S. cerevisiae C10 resistant mutants (CDC60 editing domain mutations)
# testDescription: MIC (NCCLS M27), spontaneous and EMS induced C10 resistant mutants
# Format: cell-based, Saccharomyces cerevisiae
# details: Saccharomyces cerevisiae, Table 2; C10 resistant mutant (C)
measuredProperty: MIC (µg/mL)

1. C/C=C/C/C=C/CCC(=O)[C@H]1O[C@H]1C(N)=O [Cerulenin] | 0.5
2. CN(C/C=C/C#CC(C)(C)C)Cc1cccc2ccccc12 [Terbinafine] | 4
3. Cc1cc(C2CCCCC2)n(O)c(=O)c1 [ciclopirox] | 0.5
4. CCC(C)n1ncn(-c2ccc(N3CCN(c4ccc(OCC5COC(Cn6cncn6)(c6ccc(Cl)cc6Cl)O5)cc4)CC3)cc2)c1=O (centres unmarked) [Itraconazole] | 0.125
5. OB1OCc2cc(F)ccc21 [C10, 5-fluorobenzo[c][1,2]oxaborol-1(3H)-ol] | 16

* * *

Measured solubility, listed per entry for reference.
# testDescription: Water solubility (table of physicochemical properties)
measuredProperty: solubility

1) OB1OCc2cc(Cl)ccc21 [C1, 5-chlorobenzo[c][1,2]oxaborol-1(3H)-ol] | > 100 µg/mL
2) OB1OCc2cc(F)ccc21 [C10, 5-fluorobenzo[c][1,2]oxaborol-1(3H)-ol] | > 100 µg/mL

* * *

# Test system: S. cerevisiae C10 resistant mutants (CDC60 editing domain mutations)
# testDescription: MIC (NCCLS M27), spontaneous and EMS induced C10 resistant mutants
# Assay type: cell-based, Saccharomyces cerevisiae
# details: Saccharomyces cerevisiae, Table 2; C10 resistant mutant (H)
measuredProperty: MIC

1. Cc1cc(C2CCCCC2)n(O)c(=O)c1 | 0.5 µg/mL
2. OB1OCc2cc(F)ccc21 [C10, 5-fluorobenzo[c][1,2]oxaborol-1(3H)-ol] | 16 µg/mL
3. C/C=C/C/C=C/CCC(=O)[C@H]1O[C@H]1C(N)=O | 0.5 µg/mL
4. CCC(C)n1ncn(-c2ccc(N3CCN(c4ccc(OCC5COC(Cn6cncn6)(c6ccc(Cl)cc6Cl)O5)cc4)CC3)cc2)c1=O (centres unmarked) | 0.125 µg/mL
5. CN(C/C=C/C#CC(C)(C)C)Cc1cccc2ccccc12 | 4 µg/mL

* * *

# System: S. cerevisiae C10 resistant mutants (CDC60 editing domain mutations)
# testDescription: MIC (NCCLS M27), spontaneous and EMS induced C10 resistant mutants
# Type: cell-based, Saccharomyces cerevisiae
measuredProperty: resistance of C10 resistant mutants to other antifungals, in words

1) C/C=C/C/C=C/CCC(=O)[C@H]1O[C@H]1C(N)=O | not resistant
2) C[C@@H]1C[C@@H]([C@H](O)CC2CC(=O)NC(=O)C2)C(=O)[C@@H](C)C1 [Cyclohexamide] | not resistant
3) C[C@@H]([C@H](N)C(=O)N[C@H](C(=O)O)[C@H]1O[C@@H](n2ccc(=O)[nH]c2=O)[C@H](O)[C@@H]1O)[C@H](O)c1ccc(O)cn1 | not resistant
4) CN(C/C=C/C#CC(C)(C)C)Cc1cccc2ccccc12 | not resistant
5) Cc1cc(C2CCCCC2)n(O)c(=O)c1 | not resistant
6) C[C@@H]1[C@H](O)[C@@H](C)/C=C/C=C/C=C/C=C/C=C/C=C/C=C/[C@H](O[C@@H]2O[C@H](C)[C@@H](O)[C@H](N)[C@@H]2O)C[C@@H]2O[C@](O)(C[C@@H](O)C[C@@H](O)[C@H](O)CC[C@@H](O)C[C@@H](O)CC(=O)O[C@H]1C)C[C@H](O)[C@H]2C(=O)O | not resistant

* * *

measuredProperty: melting point

1. N#Cc1cccc(Oc2ccc3c(c2)B(O)OC3)c1 | 146 to 149 °C
2. OB1OCc2cc(F)c(NCc3ccccc3)cc21 | 159 to 164 °C
3. OCc1cccc2c1B(O)OC2 | 241 to 250 °C
4. OB1OCc2ccc(Sc3ccccc3)cc21 | 121 to 124 °C
5. OB1OCc2ccc(-n3ccc4ccccc43)cc21 | 135 to 140 °C
6. Cc1ccc(Sc2ccc3c(c2)B(O)OC3)cc1 | 139 to 144 °C
7. OB1OCc2cc3c(cc21)COB3O | > 250 °C

* * *

measuredProperty: melting point

1. COc1ccc2c(c1)c(Sc1ccccc1)cn2-c1ccc2c(c1)B(O)OC2 | 135 to 141 °C
2. OCc1cc2c(cc1Br)COB2O | > 257 °C
3. OB1OCc2cccc(F)c21 [C86, 7-fluorobenzo[c][1,2]oxaborol-1(3H)-ol] | 120 to 124 °C
4. CCOC(=O)COc1ccc2c(c1)COB2O | 134 to 137 °C
5. OB1OCc2ccc(Oc3ccc(OC(F)(F)F)cc3)cc21 | 97 to 101 °C
6. OB1OCc2ccc(-n3cc(Sc4ccccc4)c4ccccc43)cc21 | 159 to 163 °C
7. [O-][S+](c1ccc(C(F)(F)F)cc1)c1ccc2c(c1)B(O)OC2 (centres unmarked) | 79 to 88 °C
8. CN(C)c1ccc2c(c1)B(O)OC2 | 120 to 123 °C
9. CSc1ccc(Sc2ccc3c(c2)B(O)OC3)cc1 | 117 to 120 °C
10. OB1OCc2ccc(NCc3ccccc3)cc21 | 126 to 133 °C
11. COc1ccc(Sc2ccc3c(c2)B(O)OC3)cc1 | 95 to 100 °C
12. O=C(Nc1ccc2c(c1)B(O)OC2)c1ccccc1 | 186 to 193 °C
13. OB1OCc2ccc(N(Cc3ccccc3)Cc3ccccc3)cc21 | 115 to 123 °C
14. OB1OCc2ccc3ccccc3c21 [C11, naphtho[1,2-c][1,2]oxaborol-1(3H)-ol] | 139 to 143 °C
15. O=C(COc1ccc2c(c1)COB2O)N1CCN(c2ncccn2)CC1 | 190 to 195 °C
16. Cc1ccc2c(c1)COB2O [C8, 5-methylbenzo[c][1,2]oxaborol-1(3H)-ol] | 124 to 128 °C
17. O=S(=O)(c1ccc(Cl)cc1)c1ccc2c(c1)B(O)OC2 | 157 to 163 °C
18. COc1ccc2c(ccn2-c2ccc3c(c2)B(O)OC3)c1 | 120 to 124 °C
19. OB1OCc2ccc(Sc3cccs3)cc21 | 99 to 104 °C
20. CC(=O)Nc1ccc2c(c1)B(O)OC2 | 176 to 185 °C
21. N#CCCSc1cn(-c2ccc3c(c2)B(O)OC3)c2ccc(Cl)cc12 | > 225 °C
22. O=S(=O)(Nc1ccc2c(c1)B(O)OC2)c1ccccc1 | 175 to 184 °C
23. Nc1cc2c(cc1F)COB2O | 142 to 145 °C

* * *

measuredProperty: melting point

1. O=S(=O)(c1ccccc1)N(c1ccc2c(c1)COB2O)S(=O)(=O)c1ccccc1 | 142 to 152 °C
2. OB1OCc2ccc(Sc3ccc(Cl)cc3)cc21 | 157 to 161 °C
3. OB1OCc2ccc(-n3cc(Sc4ccccc4)c4cc(Cl)ccc43)cc21 | 145 to 151 °C
4. CN(c1ccc2c(c1)COB2O)S(=O)(=O)c1ccccc1 | 85 to 95 °C
5. N#CCCSc1cn(-c2ccc3c(c2)B(O)OC3)c2ccccc12 | 135 to 141 °C
6. N#Cc1cccc(COc2ccc3c(c2)COB3O)c1 | 147 to 150 °C
7. OB1OCc2ccc(Sc3ccc(F)cc3)cc21 | 135 to 138 °C
8. OB1OCc2ccc(Oc3ccccc3)cc21 [C21, 6-phenoxybenzo[c][1,2]oxaborol-1(3H)-ol] | 95 to 99 °C
9. COc1ccc(S(=O)(=O)c2ccc3c(c2)B(O)OC3)cc1 | 180 to 192 °C
10. OB1OCc2ccc(Oc3ccc(C(F)(F)F)cc3)cc21 | 98 to 105 °C
11. OB1OCc2ccc(-n3ccc4cc(Cl)ccc43)cc21 | 149 to 154 °C
12. OB1OCc2cc3c(cc21)OCO3 | 185 to 189 °C
13. COc1ccc2c(c1)c(SCCC#N)cn2-c1ccc2c(c1)B(O)OC2 | 149 to 154 °C
14. [O-][S+](c1ccc(Cl)cc1)c1ccc2c(c1)B(O)OC2 (stereo not shown) | 154 to 161 °C
15. O=[N+]([O-])c1cc2c(cc1F)COB2O | 162 to 167 °C
16. OB1OCc2ccc(N3CCN(c4ccccn4)CC3)cc21 | 135 to 138 °C
17. OB1OCc2ccc(F)cc21 [C13, 6-fluorobenzo[c][1,2]oxaborol-1(3H)-ol] | 110 to 117.5 °C
18. O=C(O)COc1ccc2c(c1)COB2O | 163 to 166 °C
19. COc1ccc2c(c1)COB2O [C7, 5-methoxybenzo[c][1,2]oxaborol-1(3H)-ol] | 102 to 104 °C
20. OB1OCc2ccc(Oc3ccc(Cl)cc3)cc21 | 119 to 130 °C
21. OB1OCc2ccc(N3CCN(c4ccccc4)CC3)cc21 | 159 to 161 °C
22. OB1OCc2ccc(Sc3ccc(C(F)(F)F)cc3)cc21 | 111 to 113 °C

Values compiled from patent US9566290B2.
